System: HEp-2
Assay: Compound was tested for cytotoxicity against HEp-2 cell lines
Assay type: functional, cell-based
Details: Homo sapiens
Answer each item with its documented IC50.
Answers are plain numbers, in nM.

Examples with answers:
>  <compound>
Nc1nc(Cl)nc2c1ncn2[C@@H]1O[C@H](CO)[C@@H](O)[C@@H]1F

>  <measurement.target>
HEp-2

>  <reading.unit>
nM

>  <IC50>
12

$$$$
>  <compound>
Nc1nc(Br)nc2c1ncn2C1O[C@H](CO)[C@@H](O)[C@H]1O (stereo not given in full)

>  <measurement.target>
HEp-2

>  <reading.unit>
nM

>  <IC50>
4000

$$$$

Could you tell me IC50 for each of these compounds? They are listed below.
1. Nc1nc(Cl)nc2c1ncn2[C@H]1C[C@H](O)[C@@H](CO)O1
2. Nc1nc(F)nc2c1ncn2[C@H]1C[C@H](O)[C@@H](CO)O1
3. Nc1nc(F)nc2c1ncn2[C@@H]1O[C@H](CO)[C@@H](O)[C@@H]1F

Result block:
1. 30
2. 200
3. 340

###

Answer each item with its documented pIC50.
Test system: HEp-2
Test: Compound was tested for cytotoxicity against HEp-2 cell lines
Assay type: functional, cell-based
Details: Homo sapiens
Give bare numbers, as −log10 of the molar value.

Examples with answers:
>  <chemical.smiles>
Nc1nc(Br)nc2c1ncn2[C@@H]1O[C@H](CO)[C@@H](O)[C@H]1F

>  <value.reported>
6.66

$$$$
>  <chemical.smiles>
Nc1nc(Br)nc2c1ncn2[C@H]1C[C@H](O)[C@@H](CO)O1

>  <value.reported>
7.70

$$$$
>  <chemical.smiles>
Nc1nc(Cl)nc2c1ncn2[C@@H]1O[C@H](CO)[C@@H](O)[C@H]1O

>  <value.reported>
5.52

$$$$

Proceeding to the next compound to report its pIC50.
Query block: Quick one: give measured pIC50 for `Nc1nc(F)nc2c1ncn2[C@@H]1O[C@H](CO)[C@@H](O)[C@@H]1O`
Result block: 5.05
